TEST_SYSTEM: histamine H4 receptor (Homo sapiens, UniProt Q9H3N8)
Construct: expressed in transfected cells
Sequence (Q9H3N8 whole entry, species assumed): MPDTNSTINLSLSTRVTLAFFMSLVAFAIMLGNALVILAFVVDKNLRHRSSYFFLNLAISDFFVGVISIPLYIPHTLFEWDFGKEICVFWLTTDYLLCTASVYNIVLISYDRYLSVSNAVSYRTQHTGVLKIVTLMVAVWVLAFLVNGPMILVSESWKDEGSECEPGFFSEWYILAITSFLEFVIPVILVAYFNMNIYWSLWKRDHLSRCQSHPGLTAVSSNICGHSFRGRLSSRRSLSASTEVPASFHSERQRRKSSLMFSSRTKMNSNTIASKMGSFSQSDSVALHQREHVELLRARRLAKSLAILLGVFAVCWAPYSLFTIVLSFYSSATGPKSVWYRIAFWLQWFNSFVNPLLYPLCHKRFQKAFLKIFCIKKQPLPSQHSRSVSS
TEST_DESCRIPTION: 3H-histamine competition binding assay
CONDITION_INFO: membranes of HEK-293 cells transiently transfected with histamine H4 receptor; [3H]-histamine, 25° C., 1 hour; read-out: Binding assay Potency (Ki)
ATTRIBUTE_MEASURED: Ki (nM)
Give bare numbers, in nM.

Solved cases (2 shown):
{"COMPOUND": "CN[C@@H]1CCN(c2nc(N)nc3c2CCCC2C4CCC(CC4)C32)C1 (stereo partly drawn) [Example 28]", "SCALE_UNIT": "nM", "ASSAY_VALUE": 5.5}
{"COMPOUND": "Nc1nc2c(c(N3CCNCC3)n1)CCC1=C2C2CCCCC2O1 (stereo not drawn) [Example 1]", "SCALE_UNIT": "nM", "ASSAY_VALUE": 5.8}

Can you give me Ki for all of these, one by one?
1. Nc1nc2c(c(N3CCNCC3)n1)CC[C@@H]1CCCC[C@@H]21 (relative stereo) [Example 12]
2. Nc1nc2c(c(N3CCNCC3)n1)CC[C@@H]1CCCC[C@H]21 (relative stereo) [Example 13]
3. CNC1CN(c2nc(N)nc3c2CC[C@@H]2CCCC[C@@H]32)C1.O=C(O)C(F)(F)F.O=C(O)C(F)(F)F (relative stereo) [Example 14, bis(trifluoroacetate)]
4. Nc1nc(N2CC[C@@H](N)C2)c2ccc3c(c2n1)C1CCCCC1O3 (stereo partly drawn) [Example 7]

2
1.8
0.9
12.6

Can you give me Ki for all of these, one by one?
1. Nc1nc2c(c(N3CCNCC3)n1)CCC1=C2[C@@H]2CCCC[C@@H]2O1 (single isomer, unassigned) [Example 3]
2. Nc1nc2c(c(N3CCNCC3)n1)CCC1=C2[C@H]2CCCC[C@H]2O1 (single isomer, unassigned) [Example 4]
3. CN[C@@H]1CCN(c2nc(N)nc3c2CCC2=C3C3CCCCC3O2)C1 (stereo partly drawn) [Example 2]
4. CCNC1CN(c2nc(N)nc3c2CC[C@@H]2CCCC[C@@H]32)C1.O=C(O)C(F)(F)F.O=C(O)C(F)(F)F (relative stereo) [Example 15, bis(trifluoroacetate)]
5. CN[C@@H]1CCN(c2nc(N)nc3c2CC[C@@H]2CCCC[C@@H]32)C1 (mixture of isomers) [Example 16]
6. CN[C@@H]1CCN(c2nc(N)nc3c2CCCC2C4C=CC(CC4)C32)C1 (stereo partly drawn) [Example 25]

1: 16.6; 2: 3; 3: 3.3; 4: 1; 5: 2.6; 6: 5.6
